Values were extracted from a melting point compilation (Tetko et al.; mined from patent text by program, amines drawn as free bases though some values may be those of a salt).

Observed Property: melting point

COc1ccc(C(=O)c2ccccc2F)c(Cl)c1    77 to 79 °C
CSc1ccc(C(=O)c2cc(-c3ccc(S(C)(=O)=O)cc3)c(N3CCOCC3)s2)cc1    160 °C
Nc1ncc(-c2cccnc2)cc1[N+](=O)[O-]    226 to 228 °C
Cc1cc(Cl)c(C)c(S(=O)(=O)Nc2onc(C)c2Br)c1    148 to 150 °C
CCOCCCOc1ccc(-c2ccc3c(c2)C=C(C(=O)Nc2ccc(CN(C)C4CCOCC4)cc2)CCS3(=O)=O)cc1Cl    182 to 183 °C
CCCCc1nc2cccc(C(=O)OC)c2n1Cc1ccc(-n2cccc2C#N)cc1    128 to 129 °C
N#CC(=O)c1ccccc1CCl    54.5 to 56.5 °C
CNC(=O)CC1=CC2(CCCC2)c2ccc(Cl)cc21    190 °C
CCOCc1nc2c(N)nc3c(c2n1CC1(OCCS(C)(=O)=O)CCC1)CCCC3    186 to 188 °C
O=C(CS(=O)c1cccs1)C12CC3CC(CC(C3)C1)C2 (stereo unspecified)    114 to 116 °C
c1n[nH]c2c1Cc1[nH]ncc1-2    180 °C
CC(C)(C)NCC(O)COc1cccc2nsnc12 (stereo unspecified)    89 to 91 °C
COCN1CC(CN)c2c[nH]c3cccc(c23)C1=O (stereo unspecified)    160 to 163 °C
CCc1cccc(C)c1NCc1nccc2c1nc(C)n2C    141 to 142 °C
O=C(O)Cc1ccc(OCCC(c2ccccc2)(c2ccccc2)c2ccccc2)cc1    148 to 149 °C
Cc1ccc(C(O[Si](C)(C)C(C)(C)C)C(N)=O)cc1 (stereo unspecified)    108 to 110 °C
O=S(=O)(Nc1cc(Cl)cc(Cl)c1)c1cc(S(=O)(=O)Nc2cc(Cl)cc(Cl)c2)c2cc(O)ccc2c1    122 to 124 °C
CC(=O)NCC12CC(c3ccccc31)c1ccccc12    184 to 186 °C
CCOCC(O)(COCC)C(Cc1ccc2ccccc2c1)[N+](=O)[O-] (stereo unspecified)    87 °C
CCCCCCCc1ccc(C=Nc2ccc(C#N)cc2)cc1    32.7 to 33 °C
COC(=O)CCC(=NOCc1ccc(OCc2nc(-c3ccccc3)oc2C)c(OC)c1)c1ccccc1    112 to 114 °C

###

Observed Property: melting point

O=C(CCCCCNC(=O)c1cccc2ccccc12)NO    118 to 119 °C
CCc1c[nH]c(C2Cc3ccccc3N2C(=O)Nc2ccccc2[N+](=O)[O-])n1 (stereo unspecified)    208 to 209 °C
CCCCCCCOC(=S)SC(Cn1ccnc1)c1ccc(Cl)cc1Cl (stereo unspecified)    107 to 113 °C
Cc1ccc(Oc2ccc(OC(=O)N3CCC(C)CC3)cc2)cc1    79 to 81 °C
Cn1nc(-c2c(Cl)cncc2Cl)nc1Cc1ccncc1    130 to 132 °C
Nc1nc(N)nc(Cc2cc3ccccc3s2)n1    216 to 218 °C
COC(=O)c1cccc(-c2ncc(N=CN(C)C)cn2)c1    146 °C
CCOC(=O)Nc1cc(C)cc(Nc2c3cccc(C)c3nc3c(C(=O)NCCN(C)C)cccc23)c1    263 to 264 °C
COC(=O)c1cc2ccc(Sc3ccc(C)cc3)nc2s1    127 to 130 °C
COc1ccc(-c2cccc(C=CC(=O)Nc3ccc(CN4CCCCC4)cc3)c2)cc1    150 to 151 °C
COc1cc(C(=O)c2c(-c3ccc(OCCN4CCCC4)c(COCc4ccccc4)c3)sc3cc(O)ccc23)ccc1CN1CCOCC1    87 to 90 °C
Cn1c(N)cc(=O)n1-c1ccccc1    205 to 215 °C
N#Cc1c(N)cccc1Sc1ccccc1    73 to 77 °C
Cc1nnc(SCC(=O)C23CC4CC(CC(C4)C2)C3)s1    102 to 105 °C
Cc1c(-c2ccc(Cl)cc2)nc2ccc(C(=O)NC(Cc3ccc(OCc4ccccc4)cc3)C(=O)O)cn12 (stereo unspecified)    244 to 245 °C
CCCC1(C)C(=O)N(CC(=O)Nc2c(C(C)C)cccc2C(C)C)C(=O)N1c1ccc(C)cc1 (stereo unspecified)    186 °C
CCCOc1cccc(Oc2ccc3c(c2)C=C(C(=O)Nc2ccc(CN(C)C4CCOCC4)cc2)CCS3(=O)=O)c1    143 to 144 °C
S=C1NCC2(CC2)CN1    220 to 222 °C
COc1ccc(CN(CCCNc2ncc(Cc3ccc(C)nc3)c(=O)[nH]2)c2ccccn2)cc1    90 to 98 °C
COC(=O)Nc1nc2ccc(Sc3ccccc3)cn2c1Br    165 to 168 °C
Cc1cc(-c2ccc(N(c3ccccc3)c3ccccc3)c(C)c2)ccc1N(c1ccccc1)c1ccccc1    175 to 178 °C
CCOC(=O)c1[nH]c2ccc(C[C@H]3COC(=O)N3)cc2c1CCN(C)C    49 to 55 °C
CCCC(=O)c1ccc(NC(C)=O)cc1    141 to 143 °C
O=C1COc2cc(C(O)(C(F)(F)F)C(F)(F)F)ccc2N1    224 to 225 °C
CCCN1CC(c2ccc(S(C)(=O)=O)cc2)=C(c2cccc(C)c2)C1=O    120 to 122 °C
Cc1cc(C)c(-n2nnc3c(-c4ccccc4C(F)(F)F)nc(C)nc32)c(C)c1    139 °C
CC(C)OC(=O)N1Cc2c(-c3ccc(F)cc3)ncn2-c2ccccc21    160 °C
COC(=O)CNC(=O)CC(=O)CBr    76 to 77 °C
CC(=O)Nc1ccc(NCCO)c([N+](=O)[O-])c1    186 °C
O=C(O)c1ccc2c(c1)Sc1ccccc1C=C2    251 to 254 °C
CN1CCC(OC2c3ccccc3CCn3cc(-c4ccc(N)cc4)nc32)CC1 (stereo unspecified)    197 °C
Cc1cc(N)nc(C)c1-c1ccc(Cl)cc1    148 to 152 °C
O=C1CCC(OCc2ccccc2)N1S(=O)(=O)c1ccccc1 (stereo unspecified)    80 to 81 °C
N#C[C@@H]1C[C@@H]2C[C@@H]2N1C(=O)[C@@H](NC(=O)OCc1ccccc1)C12CC3CC(CC(O)(C3)C1)C2    105 to 106 °C
CON=C(C#CCCl)C(=O)OC    64 to 67 °C
CN(CCN1CCOCC1)c1noc2cc(OC(=O)NCc3ccccc3)ccc12    106 to 107 °C
CC(=O)c1c(C)[nH]c(C(C)c2ccccc2)c1C (stereo unspecified)    146 to 148 °C
OC(c1ccccc1)(C1CC1)C(c1ccccc1Cl)n1ccnc1 (stereo unspecified)    146 °C
COC(=O)c1ccc(OC)c2c1OCCCO2    212 °C
CC1CCc2cc(N3C[C@H](CO)OC3=O)ccc2N1C(=O)OCc1ccccc1 (stereo partly specified)    99 to 102 °C
COC(=O)c1ncc(Cl)nc1Cl    60 to 63 °C

###

Listed next: entries and their corresponding melting point.
Observed Property: melting point

O=c1[nH]c(=O)n(C2CC(OCc3ccccc3)C(COC(c3ccccc3)(c3ccccc3)c3ccccc3)O2)cc1F (stereo not given)    138 to 139 °C
OCC1CC(n2c(N3CCC3)nc3cc(Cl)c(Cl)cc32)C(O)C1O (stereo not given)    221 to 222 °C
O=C1NC(=O)c2c1c(-c1ccccc1Cl)cc1c2ccn1CCN1CCCC1    208 to 209 °C
Cn1nc(CO)nc1NCC(O)CCOc1cccc(CN2CCCCC2)c1 (stereo not given)    148 °C
Cn1cc(C(=O)CCN2CCCCC2)cc1C(=O)c1cccc2ccccc12    141 to 143 °C

###

Catalogue of compounds with associated melting point
Observed Property: melting point

O=S(=O)(O)CCCN1CCCc2ccccc21    233 to 237 °C
O=C(O)c1cn(C2CC2)c2c(C(F)(F)F)c(N3CCC(c4ccncc4)C3)c(F)cc2c1=O (stereo not given)    244 to 245 °C
O=C1CC(=CCl)c2c(O)cc(O)cc2O1    228 to 230 °C
CCCOC(=O)c1sccc1S(N)(=O)=O    79 °C
O=c1oc(-c2ccc(OCCO)cc2)cc(O)c1SCCc1ccccc1    123 to 125 °C
CCNc1ncccc1-c1sccc1-c1cccnc1F    86 to 89 °C
COC(CC(=O)O)C(O)=Nc1cc(Cl)cc(Cl)c1 (stereo not given)    125 to 126 °C
CCCCCCCCCCCCNC(=O)Oc1ccc2oc3ccccc3c2c1    112 to 114 °C
CCOC(=O)c1cn(C)c2nc3c(F)c(N4CCNC(c5ccc(OC)cc5)C4)c(F)cc3cc2c1=O (racemic)    209 °C
COC(=O)c1cn(Cc2ccccc2F)cn1    87 to 89 °C
